Test Name: Lipophilicity, logD of the compound at pH 7.4
Experimental Parameters: buffer
We begin with a simple list: items and their reported logD.

| Compound | logD |
| --- | --- |
| CCc1ccc(N(C2COC2)S(=O)(=O)c2ccc3c(c2)C(=O)CC(C2CCOCC2)O3)cc1 (centres undefined) | 2.72 |
| CCc1ccc(N(CC(C)C)S(=O)(=O)c2ccc3c(c2)C(=O)CC(C2CCN(C(=O)OC(C)(C)C)CC2)O3)cc1 (centres undefined) | 5.1 |
| CC(C)CN(c1ccc(C(C)(C)C)cc1)S(=O)(=O)c1ccc2c(c1)C(=O)CC(C1CCOCC1)O2 (centres undefined) | 4.97 |
| CCc1ccc(N(Cc2ccccc2)S(=O)(=O)c2ccc3c(c2)C(=O)CC(C2CCOCC2)O3)cc1 (centres undefined) | 4.84 |
| CC(C)CN(c1ccccc1F)S(=O)(=O)c1ccc2c(c1)C(=O)CC(C1CCOCC1)O2 (centres undefined) | 3.44 |
| CCc1ccc(N(CC2CC2)S(=O)(=O)c2ccc3c(c2)C(=O)CC(C2CCOCC2)O3)cc1 (centres undefined) | 3.77 |
| CC(C)CN(Cc1ccccc1C(F)(F)F)S(=O)(=O)c1ccc2c(c1)C(=O)CC(C1CCOCC1)O2 (centres undefined) | 4.32 |
| CCc1ccc(N(CC(C)C)S(=O)(=O)c2ccc3c(c2)C(=O)CC(C2CCNCC2)O3)cc1 (centres undefined) | 2.21 |
| CCc1ccc(N(CC(F)(F)F)S(=O)(=O)c2ccc3c(c2)C(=O)CC(C2CCOCC2)O3)cc1 (centres undefined) | 3.97 |
| CCc1ccc(N(CC(C)C)S(=O)(=O)c2ccc3c(c2)C(=O)CC(C2(C)CCOCC2)O3)cc1 (centres undefined) | 4.71 |
| CC(C)CN(c1cc2ccccc2s1)S(=O)(=O)c1ccc2c(c1)C(=O)CC(C1CCOCC1)O2 (centres undefined) | 4.01 |
| CCc1ccc(N(CC(C)C)S(=O)(=O)c2ccc3cc(OCC4CCOCC4)c(CO)cc3c2)cc1 | 5.1 |
| CCc1ccc(N(C2CCC2)S(=O)(=O)c2ccc3c(c2)C(=O)CC(C2CCOCC2)O3)cc1 (centres undefined) | 3.78 |
| CCc1ccc(N(CC(C)C)S(=O)(=O)c2ccc3c(c2)C(=O)CC(C2CCN(S(=O)(=O)C4CCCC4)CC2)O3)cc1 (centres undefined) | 4.75 |

# credit: ChEMBL document CHEMBL5042513
